Values were extracted from paper PMC4919790.

test system: AURKA on the spindle in mitotic HeLa cells; experiment: High-content microscopy assay of AURKA mislocalisation from spindle microtubules; format: cell-based; conditions: Homo sapiens, 2 h treatment, % cells with below threshold AURKA intensity under TPX2 mask
Readout: EC50 (µM)
# value in µM; strip the unit string

Return EC50 (reported value) for this molecule: O=C(O)c1cc(-c2cccc(Br)c2)nc2c(F)cccc12 [AurkinA]
85
